Measured pKi on Glutamate receptor 1 (Homo sapiens, UniProt P42261) follows.
Sequence (P42261 whole entry): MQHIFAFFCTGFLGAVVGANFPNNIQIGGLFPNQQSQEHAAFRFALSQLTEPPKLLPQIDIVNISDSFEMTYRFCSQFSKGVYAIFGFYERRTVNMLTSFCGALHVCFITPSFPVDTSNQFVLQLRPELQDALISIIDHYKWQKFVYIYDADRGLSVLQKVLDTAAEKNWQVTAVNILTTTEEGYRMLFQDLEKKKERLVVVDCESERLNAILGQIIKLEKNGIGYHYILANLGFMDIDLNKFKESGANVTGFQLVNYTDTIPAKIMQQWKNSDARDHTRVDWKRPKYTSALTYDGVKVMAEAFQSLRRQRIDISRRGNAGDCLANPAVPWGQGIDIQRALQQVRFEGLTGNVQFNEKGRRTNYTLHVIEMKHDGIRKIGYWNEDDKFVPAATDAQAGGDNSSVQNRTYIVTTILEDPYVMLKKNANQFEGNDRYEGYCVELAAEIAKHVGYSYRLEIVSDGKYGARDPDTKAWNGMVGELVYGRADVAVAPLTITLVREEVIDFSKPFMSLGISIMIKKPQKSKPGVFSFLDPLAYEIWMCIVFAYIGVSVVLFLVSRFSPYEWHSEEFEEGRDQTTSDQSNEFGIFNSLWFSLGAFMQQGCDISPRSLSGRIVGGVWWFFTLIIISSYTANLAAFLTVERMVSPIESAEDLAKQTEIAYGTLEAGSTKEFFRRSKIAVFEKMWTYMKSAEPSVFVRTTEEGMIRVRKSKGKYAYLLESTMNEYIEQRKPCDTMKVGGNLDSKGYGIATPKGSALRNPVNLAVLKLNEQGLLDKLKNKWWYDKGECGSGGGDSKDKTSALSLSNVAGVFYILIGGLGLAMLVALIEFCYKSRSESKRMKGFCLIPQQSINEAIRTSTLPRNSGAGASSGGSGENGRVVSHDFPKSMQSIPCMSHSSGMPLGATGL
Reminder that pKi is minus the log10 of a molar concentration.

NC(Cc1onc(O)c1Cl)C(=O)O (configuration not stated); 6.89

Let us examine a further case.
# value lookup — system Glutamate receptor 1 (Homo sapiens, UniProt P42261), readout pKi, item NC(Cc1onc(O)c1Br)C(=O)O (configuration not stated) 6.77

====

biological target: Glutamate receptor 2 (Rattus norvegicus, UniProt P19491); assay: Effective concentration of compound was determined for electrophysiological properties on Ionotropic glutamate receptor AMPA 2 (GluR2) using […] Xenopus laevis oocytes
measured-endpoint: EC50 (nM)
Reply with just the number (in nM).

Reported EC50 for Glutamate receptor 2 (Rattus norvegicus, UniProt P19491), given NC(Cc1onc(O)c1Cl)C(=O)O (stereo unspecified) ? 1700

====

target: Glutamate receptor ionotropic, kainate 3 (Rattus norvegicus, UniProt P42264); experiment: Binding affinity of compound was determined against Ionotropic glutamate receptor ionotropic kainate, using radioligand [3H]- KA
measured-endpoint: IC50

Query (compound): NC(Cc1onc(O)c1Br)C(=O)O (stereo unspecified) ; field requested: IC50 > 100 µM

====

molecular target: Glutamate receptor 2 (Homo sapiens); assay: biochemical
# maps each entry to its Ki
Enter the number, and then the unit.

NC(Cc1onc(O)c1Br)C(=O)O (configuration not stated); 250 nM

Recorded Ki for NC(Cc1onc(O)c1Cl)C(=O)O (configuration not stated) with Glutamate receptor 2 (Homo sapiens), please? 370 nM

====

target: Glutamate receptor ionotropic, kainate 3 (Rattus norvegicus); test: Binding affinity of compound was determined against KA receptor, using radioligand [3H]- KA
pIC50: −log10 of the molar value.
measured-endpoint: pIC50

I am curious: what pIC50 value has been reported for NC(Cc1onc(O)c1Cl)C(=O)O (stereo unspecified) ? < 4.00

====

target: UniProt P48058
Sequence (P48058 whole entry): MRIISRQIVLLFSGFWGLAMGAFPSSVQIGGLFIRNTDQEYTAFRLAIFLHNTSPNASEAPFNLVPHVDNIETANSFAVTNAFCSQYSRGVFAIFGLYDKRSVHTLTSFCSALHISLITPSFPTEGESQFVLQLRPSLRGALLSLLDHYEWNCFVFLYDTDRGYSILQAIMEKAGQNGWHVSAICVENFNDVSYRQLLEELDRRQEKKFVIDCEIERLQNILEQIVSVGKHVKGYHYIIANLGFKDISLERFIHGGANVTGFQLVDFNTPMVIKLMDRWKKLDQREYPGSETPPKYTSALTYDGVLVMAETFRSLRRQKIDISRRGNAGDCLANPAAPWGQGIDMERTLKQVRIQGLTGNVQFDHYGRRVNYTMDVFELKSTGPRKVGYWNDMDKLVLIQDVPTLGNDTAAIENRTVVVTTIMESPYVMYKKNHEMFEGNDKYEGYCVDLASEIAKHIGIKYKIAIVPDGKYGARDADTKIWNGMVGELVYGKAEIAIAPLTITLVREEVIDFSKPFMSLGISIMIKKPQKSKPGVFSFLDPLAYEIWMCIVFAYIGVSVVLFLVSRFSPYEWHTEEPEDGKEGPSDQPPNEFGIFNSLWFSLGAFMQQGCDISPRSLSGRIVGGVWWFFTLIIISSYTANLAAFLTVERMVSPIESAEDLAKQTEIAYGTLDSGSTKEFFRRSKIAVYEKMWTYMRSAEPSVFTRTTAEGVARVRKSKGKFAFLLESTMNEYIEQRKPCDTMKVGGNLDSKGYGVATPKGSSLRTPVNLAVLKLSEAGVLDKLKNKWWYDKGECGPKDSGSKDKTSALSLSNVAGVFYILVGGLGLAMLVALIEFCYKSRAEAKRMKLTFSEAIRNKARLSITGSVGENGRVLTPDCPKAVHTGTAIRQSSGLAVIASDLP
Below is a list of entries, each paired with its recorded Ki value.
Entry rule: numbers only, all in µM.

NC(Cc1onc(O)c1Cl)C(=O)O (configuration not stated); 11.9

From here, focus on the item given below.
If you can, please state the reported Ki value of NC(Cc1onc(O)c1Br)C(=O)O (configuration not stated) . 11.7

====

# collection of Ki values tested on Glutamate receptor ionotropic, kainate 1 (Homo sapiens)
# Sequence (P39086 whole entry): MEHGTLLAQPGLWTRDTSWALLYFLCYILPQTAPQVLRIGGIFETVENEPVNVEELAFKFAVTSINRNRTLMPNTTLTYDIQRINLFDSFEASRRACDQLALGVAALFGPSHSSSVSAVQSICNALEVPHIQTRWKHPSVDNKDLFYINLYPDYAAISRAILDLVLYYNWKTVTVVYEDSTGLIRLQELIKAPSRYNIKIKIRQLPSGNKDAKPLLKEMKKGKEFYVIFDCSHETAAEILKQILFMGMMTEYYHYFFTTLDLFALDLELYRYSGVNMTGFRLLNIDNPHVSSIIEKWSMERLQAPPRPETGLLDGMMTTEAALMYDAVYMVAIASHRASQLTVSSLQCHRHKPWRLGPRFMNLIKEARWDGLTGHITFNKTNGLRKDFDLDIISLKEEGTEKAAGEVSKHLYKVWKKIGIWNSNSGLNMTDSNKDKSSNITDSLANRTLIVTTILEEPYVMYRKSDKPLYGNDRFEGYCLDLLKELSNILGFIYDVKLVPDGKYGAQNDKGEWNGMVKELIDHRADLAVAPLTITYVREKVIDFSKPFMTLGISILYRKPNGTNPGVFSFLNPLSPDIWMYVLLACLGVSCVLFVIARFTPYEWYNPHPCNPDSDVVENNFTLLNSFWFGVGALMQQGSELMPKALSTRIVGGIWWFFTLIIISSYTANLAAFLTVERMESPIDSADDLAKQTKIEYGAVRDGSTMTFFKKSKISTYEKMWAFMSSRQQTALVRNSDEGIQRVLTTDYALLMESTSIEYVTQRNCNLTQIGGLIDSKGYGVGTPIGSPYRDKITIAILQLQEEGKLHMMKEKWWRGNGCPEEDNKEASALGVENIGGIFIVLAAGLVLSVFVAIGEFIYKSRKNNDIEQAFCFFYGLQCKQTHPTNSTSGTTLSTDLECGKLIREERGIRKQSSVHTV
Field format: number, assumed µM, no unit text.

NC(Cc1onc(O)c1Br)C(=O)O (configuration not stated); 4.8

Kindly review the next compound as well.
Item under review: NC(Cc1onc(O)c1Cl)C(=O)O (configuration not stated) . Reported Ki? 6.8

====

target: Glutamate receptor 1 (Mus musculus); assay: Effective concentration of compound was determined for electrophysiological properties on […] glutamate receptor 1 using […] Xenopus laevis oocytes
measured-endpoint: EC50 (µM)
Write the number in µM without appending the unit.

Lab note: need EC50 with Glutamate receptor 1 (Mus musculus) for entry NC(Cc1onc(O)c1Br)C(=O)O (stereo unspecified) , please look it up. 14

====

target: Metabotropic glutamate receptor 1 (Homo sapiens, UniProt Q13255); experiment: Antagonist activity of compound at Metabotropic glutamate receptor 1 alpha was determined; type: functional
measured-endpoint: pKi
pKi (log units): -log10 of the concentration in mol/L.

Form field: pKi recorded for NC(Cc1onc(O)c1Cl)C(=O)O (stereo unspecified) with Metabotropic glutamate receptor 1 (Homo sapiens, UniProt Q13255) (enter value) 3.07

====

experiment: Neurotoxicity was determined in cultured mouse cortical neurons; assay type: toxicity
measured-endpoint: pEC50
Scale: negative log10 of molar concentration, which is what pEC50 denotes.

NC(Cc1onc(O)c1Br)C(=O)O (stereo not drawn); 4.80
NC(Cc1onc(O)c1Cl)C(=O)O (stereo not drawn); 4.57

I would be grateful if you could share the reported pEC50 for Cc1onc(O)c1CC(N)C(=O)O [(R,S)-AMPA] . 4.89

====

target: Glutamate receptor ionotropic, kainate 2 (Homo sapiens, UniProt Q13002)
Sequence (Q13002 whole entry): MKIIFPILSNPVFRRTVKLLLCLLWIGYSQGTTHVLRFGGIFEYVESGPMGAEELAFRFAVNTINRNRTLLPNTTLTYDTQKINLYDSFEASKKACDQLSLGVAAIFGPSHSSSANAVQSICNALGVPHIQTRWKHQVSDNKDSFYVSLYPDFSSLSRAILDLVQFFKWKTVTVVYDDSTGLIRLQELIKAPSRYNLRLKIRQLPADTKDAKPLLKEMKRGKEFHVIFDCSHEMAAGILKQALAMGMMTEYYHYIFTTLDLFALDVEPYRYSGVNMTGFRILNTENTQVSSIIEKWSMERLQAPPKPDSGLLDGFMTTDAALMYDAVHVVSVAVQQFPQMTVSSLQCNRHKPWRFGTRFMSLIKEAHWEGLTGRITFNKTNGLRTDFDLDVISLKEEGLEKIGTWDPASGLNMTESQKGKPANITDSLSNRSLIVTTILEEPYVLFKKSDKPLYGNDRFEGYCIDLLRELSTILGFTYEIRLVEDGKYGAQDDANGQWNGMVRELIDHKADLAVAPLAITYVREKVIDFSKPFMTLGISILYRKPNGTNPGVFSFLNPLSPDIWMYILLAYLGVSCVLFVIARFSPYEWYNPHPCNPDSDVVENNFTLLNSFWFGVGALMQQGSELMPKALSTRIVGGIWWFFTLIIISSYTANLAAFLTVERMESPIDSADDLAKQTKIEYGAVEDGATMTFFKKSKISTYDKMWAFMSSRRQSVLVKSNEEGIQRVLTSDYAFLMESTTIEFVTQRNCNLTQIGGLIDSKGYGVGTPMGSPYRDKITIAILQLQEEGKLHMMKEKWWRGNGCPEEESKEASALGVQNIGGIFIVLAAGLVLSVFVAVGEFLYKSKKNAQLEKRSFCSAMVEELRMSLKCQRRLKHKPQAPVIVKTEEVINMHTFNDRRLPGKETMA
This section presents molecules with their documented Ki values.

NC(Cc1onc(O)c1Br)C(=O)O (configuration not stated); > 100 µM

Let's switch to this molecule now.
Which Ki is reported with Glutamate receptor ionotropic, kainate 2 (Homo sapiens, UniProt Q13002) for this entry: NC(Cc1onc(O)c1Cl)C(=O)O (configuration not stated) ? > 100 µM

====

target: Glutamate receptor 4 (Rattus norvegicus); test: Effective concentration of compound was determined for electrophysiological properties on Ionotropic glutamate receptor AMPA 4 (GluR4) using […] Xenopus laevis oocytes
measured-endpoint: pEC50
Here pEC50 is given on a logarithmic scale as minus log10 of the concentration in mol/L.

Please report the recorded pEC50 for NC(Cc1onc(O)c1Cl)C(=O)O (stereo unspecified) . 2.89

====

target: Glutamate receptor ionotropic, NMDA 2C (Rattus norvegicus)
Sequence (Q00961 whole entry): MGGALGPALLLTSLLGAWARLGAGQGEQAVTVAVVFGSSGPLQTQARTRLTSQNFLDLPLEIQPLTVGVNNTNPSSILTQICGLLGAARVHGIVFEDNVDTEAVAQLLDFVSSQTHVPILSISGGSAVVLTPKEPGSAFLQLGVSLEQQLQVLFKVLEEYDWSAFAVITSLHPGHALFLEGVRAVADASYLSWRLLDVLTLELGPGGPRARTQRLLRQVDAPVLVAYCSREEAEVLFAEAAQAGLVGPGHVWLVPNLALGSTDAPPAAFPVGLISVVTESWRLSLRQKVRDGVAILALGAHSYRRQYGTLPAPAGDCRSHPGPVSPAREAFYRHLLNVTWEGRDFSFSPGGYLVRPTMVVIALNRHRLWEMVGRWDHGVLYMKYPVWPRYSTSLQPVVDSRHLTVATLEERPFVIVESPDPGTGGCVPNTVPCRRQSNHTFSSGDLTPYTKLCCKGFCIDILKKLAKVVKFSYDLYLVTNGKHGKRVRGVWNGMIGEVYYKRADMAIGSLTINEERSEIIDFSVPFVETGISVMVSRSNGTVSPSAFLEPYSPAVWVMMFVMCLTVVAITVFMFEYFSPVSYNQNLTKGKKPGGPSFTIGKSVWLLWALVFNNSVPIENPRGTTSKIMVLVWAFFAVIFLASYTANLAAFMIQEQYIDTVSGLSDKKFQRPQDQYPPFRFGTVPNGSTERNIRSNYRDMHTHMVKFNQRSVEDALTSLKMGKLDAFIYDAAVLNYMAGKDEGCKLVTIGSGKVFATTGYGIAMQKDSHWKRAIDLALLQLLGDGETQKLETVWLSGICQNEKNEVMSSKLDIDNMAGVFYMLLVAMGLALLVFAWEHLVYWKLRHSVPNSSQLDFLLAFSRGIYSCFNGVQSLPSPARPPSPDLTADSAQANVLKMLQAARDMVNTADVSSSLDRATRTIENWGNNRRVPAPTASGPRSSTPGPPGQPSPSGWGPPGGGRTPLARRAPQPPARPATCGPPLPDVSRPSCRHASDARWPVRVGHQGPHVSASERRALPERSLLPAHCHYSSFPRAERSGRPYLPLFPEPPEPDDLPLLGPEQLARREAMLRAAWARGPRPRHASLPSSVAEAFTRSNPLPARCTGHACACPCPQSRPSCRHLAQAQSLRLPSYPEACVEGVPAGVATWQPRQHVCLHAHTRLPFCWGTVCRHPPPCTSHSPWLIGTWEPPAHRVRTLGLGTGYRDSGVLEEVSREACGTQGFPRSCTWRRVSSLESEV
Measured Ki of individual entries
Respond with the bare value in µM.

What Ki value was documented for this molecule, NC(Cc1onc(O)c1Cl)C(=O)O (configuration not stated) ? 18

What value of Ki has been recorded for this entry: NC(Cc1onc(O)c1Br)C(=O)O (configuration not stated) 34
